Biological target: T1, CRF2R
T1 sequence (Q13324 whole entry, species assumed, looked up): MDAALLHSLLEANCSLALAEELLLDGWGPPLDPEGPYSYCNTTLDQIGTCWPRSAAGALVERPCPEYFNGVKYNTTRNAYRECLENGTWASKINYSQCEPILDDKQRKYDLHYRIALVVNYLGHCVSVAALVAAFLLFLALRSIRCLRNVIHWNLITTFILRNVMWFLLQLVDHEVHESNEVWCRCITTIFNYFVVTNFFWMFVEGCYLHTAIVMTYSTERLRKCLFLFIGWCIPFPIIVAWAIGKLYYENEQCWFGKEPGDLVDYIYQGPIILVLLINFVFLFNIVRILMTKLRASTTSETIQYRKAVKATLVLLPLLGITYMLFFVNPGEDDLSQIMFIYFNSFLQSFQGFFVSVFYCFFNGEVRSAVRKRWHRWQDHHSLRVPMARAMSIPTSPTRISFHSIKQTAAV
Test: cell-based or functional assay
Ends that are not written are not given here.
Parameter Measured: CRF2R EC50 (nM)
Enter your answer as a number in nM; do not include the unit.

Prompt line: Entry under review: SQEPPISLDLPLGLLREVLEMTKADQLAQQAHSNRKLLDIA-NH2 [SEQ ID NO 90] . Reported CRF2R EC50?
Response line: 100

Prompt line: Entry under review: ZGPPISIDLPITLLRKMIEIEKQEKEKQQAANNRLLLDTI (C-terminal amide) [SEQ ID NO 24] . Reported CRF2R EC50?
Response line: 43.1

Prompt line: Entry under review: ZGPPISIDLPFQLLRKMIEIEKQEKEKQQATTNARLLDRV (C-terminal amide) [SEQ ID NO 22] . Reported CRF2R EC50?
Response line: 8.33
